Attribution: patent US4841051A

Assay: Acute toxicity, intraperitoneal
Details: mouse, in vivo, ip, ICR male mice, up-and-down method or van der Welden method
Please note: LD50 exactly at 200 mg/kg is N. Only values below 200 mg/kg get Y.

{"Molecular string": "CCOc1ccccc1N1CCN(CCn2c(C)nc3nc(C)cc(C)c3c2=O)CC1", "Class label": "N"}
{"Molecular string": "CCOc1ccccc1N1CCN(CCCn2c(C)nc3nc(C)cc(C)c3c2=O)CC1", "Class label": "Y"}
{"Molecular string": "CCOc1ccccc1N1CCN(CCCCn2c(=O)n(-c3ccccc3)c(=O)c3c(C)cc(C)nc32)CC1", "Class label": "N"}
{"Molecular string": "CCOc1ccccc1N1CCN(CCn2cnc3ccccc3c2=O)CC1", "Class label": "N"}
{"Molecular string": "CCOc1ccccc1N1CCN(CCCn2c(C)nc3ccccc3c2=O)CC1", "Class label": "Y"}
{"Molecular string": "CCOc1ccccc1N1CCN(CCCCn2c(C)nc3nc(C)cc(C)c3c2=O)CC1", "Class label": "Y"}
{"Molecular string": "CCOc1ccccc1N1CCN(CCn2c(C)nc3ccccc3c2=O)CC1", "Class label": "Y"}

Switching to the query record.
Does this molecule meet the criterion LD50 < 200 mg/kg? "CCOc1ccccc1N1CCN(CCCCn2cnc3ccccc3c2=O)CC1"
Y
